Molecular target: HLA-A*23:01
Experiment: IEDB peptide-MHC binding, purified MHC/competitive/radioactivity; filed as Kd, often an IC50 or EC50 that approximates it; bounds were set here for any values at or beyond the usual limits of such assays
Conditions: source organism: Lymphocytic choriomeningitis virus (strain Armstrong)
quantity: pKd
Worth noting: pKd values are minus log10 of concentrations stated in mol/L.

Recorded pKd of WCSQTSYQYL , please.
5.08

====

pKd values for the sequences below.
Target: HLA-B*53:01
Assay: IEDB peptide-MHC binding, purified MHC/competitive/radioactivity; filed as Kd, often an IC50 or EC50 that approximates it; bounds were set here for any values at or beyond the usual limits of such assays
Conditions: source organism: Dengue virus 4 Philippines/H241/1956
Please keep in mind that pKd is minus log10 of the molar concentration; only the number is needed.

Some solved cases for reference:
• FVEGVSGGAW = 6.68
• FGMFTTNIW = 7.69

Switching to the query record.
Missing value: pKd, HLA-B*53:01, entry IPVTMTLWYM . Fill in?
7.16
